Provenance of the data: patent US8987314B2

targetDesc: Endothelial lipase (EL) (Homo sapiens (Human), UniProt Q9Y5X9)
Sequence (Q9Y5X9 21-500): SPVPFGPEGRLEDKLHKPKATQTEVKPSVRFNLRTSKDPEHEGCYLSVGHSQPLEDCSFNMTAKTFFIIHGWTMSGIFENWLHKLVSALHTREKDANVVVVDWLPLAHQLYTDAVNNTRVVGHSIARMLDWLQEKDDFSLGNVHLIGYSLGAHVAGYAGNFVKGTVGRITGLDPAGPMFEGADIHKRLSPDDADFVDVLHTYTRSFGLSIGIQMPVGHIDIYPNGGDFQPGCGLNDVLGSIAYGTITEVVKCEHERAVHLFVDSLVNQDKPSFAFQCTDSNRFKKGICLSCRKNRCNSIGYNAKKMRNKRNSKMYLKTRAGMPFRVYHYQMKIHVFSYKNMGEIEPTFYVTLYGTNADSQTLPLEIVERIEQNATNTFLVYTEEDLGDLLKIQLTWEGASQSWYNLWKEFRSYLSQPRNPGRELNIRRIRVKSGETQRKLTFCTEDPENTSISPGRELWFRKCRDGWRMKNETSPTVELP
measurementNotes: EL assay: endothelial lipase activity with fluorescent substrate A10070 in DMPG vesicles
Assay type: biochemical
metric: IC50

[[record]]
compound = "NS(=O)(=O)CCNC(=O)C(c1nc2ccc(-c3ccnc(O)c3)cc2s1)S(=O)(=O)CCC(F)(F)F (stereo not drawn)"
targetdesc = "Endothelial lipase (EL) (Homo sapiens (Human), UniProt Q9Y5X9)"
metric = "IC50"
measurement = "< 10 nM"

[[record]]
compound = "CS(=O)(=O)C(C(=O)NCCS(N)(=O)=O)c1nc2ccc(-c3ccc(C(=O)N4CCOCC4)cc3)cc2s1 (stereo not drawn)"
targetdesc = "Endothelial lipase (EL) (Homo sapiens (Human), UniProt Q9Y5X9)"
metric = "IC50"
measurement = "< 10 nM"

[[record]]
compound = "CS(=O)(=O)C(C(=O)NCCS(N)(=O)=O)c1nc2ccc(-c3ccnc(O)c3)cc2s1 (stereo not drawn)"
targetdesc = "Endothelial lipase (EL) (Homo sapiens (Human), UniProt Q9Y5X9)"
metric = "IC50"
measurement = "< 10 nM"

